The origin of these recorded values is ChEMBL document CHEMBL4689842.

System: U2OS
Test method notes: Multiplex assay against U2OS
Format: toxicity, cell-based
Stated conditions: human, 48 h, 1 µM, compound concentration 1 uM, replicate 1
Under this convention, yes (1) denotes Population Mitochondria Different-Phenotype (%) strictly below 10% and no (0) denotes Population Mitochondria Different-Phenotype (%) at or above 10%.

Exercise: Answer whether the compound N#Cc1cccc(C(=O)Nc2cc(-c3ccccc3)nn2-c2ccccc2)c1 has Population Mitochondria Different-Phenotype (%) strictly less than 10%
Solution: yes (1)

Exercise: Answer whether the compound CCCc1cc(C)[nH]c(=O)c1CNC(=O)c1cc(-c2ccc(N3CCN(C(C)C)CC3)nc2)cc2c1cnn2C(C)C has Population Mitochondria Different-Phenotype (%) strictly less than 10%
Solution: no (0)

Exercise: Answer whether the compound CC(/C=C1\SC(=S)N(CCCC(=O)Nc2ccc(C(=O)O)c(O)c2)C1=O)=C\c1ccccc1 has Population Mitochondria Different-Phenotype (%) strictly less than 10%
Solution: yes (1)

Exercise: Answer whether the compound Cc1ccc(S(=O)(=O)NC2c3ccccc3Oc3ccccc32)cc1 has Population Mitochondria Different-Phenotype (%) strictly less than 10%
Solution: yes (1)

Exercise: Answer whether the compound CC(C)[C@H](CO)Nc1nc(Nc2cccc(Cl)c2)c2ncn(C(C)C)c2n1 has Population Mitochondria Different-Phenotype (%) strictly less than 10%
Solution: no (0)

Exercise: Answer whether the compound CC(Cc1ccc(O)c(O)c1)C(C)Cc1ccc(O)c(O)c1 (centres undefined) [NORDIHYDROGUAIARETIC ACID] has Population Mitochondria Different-Phenotype (%) strictly less than 10%
Solution: no (0)

Exercise: Answer whether the compound N#CCNC(=O)c1ccc(-c2ccnc(Nc3ccc(N4CCOCC4)cc3)n2)cc1 has Population Mitochondria Different-Phenotype (%) strictly less than 10%
Solution: no (0)

Exercise: Answer whether the compound CCCCCNC(=N)N/N=C/c1c[nH]c2ccc(OC)cc12.O=C(O)/C=C\C(=O)O [TEGASEROD MALEATE] has Population Mitochondria Different-Phenotype (%) strictly less than 10%
Solution: no (0)
